- METHOD NOTES: self-splicing fitness, log relative to wild type (ln ratio); higher = more splicing; Tetrahymena group I intron in knt gene, E. coli kanamycin selection, DiMSum; sequences stand for … in CUCUCU…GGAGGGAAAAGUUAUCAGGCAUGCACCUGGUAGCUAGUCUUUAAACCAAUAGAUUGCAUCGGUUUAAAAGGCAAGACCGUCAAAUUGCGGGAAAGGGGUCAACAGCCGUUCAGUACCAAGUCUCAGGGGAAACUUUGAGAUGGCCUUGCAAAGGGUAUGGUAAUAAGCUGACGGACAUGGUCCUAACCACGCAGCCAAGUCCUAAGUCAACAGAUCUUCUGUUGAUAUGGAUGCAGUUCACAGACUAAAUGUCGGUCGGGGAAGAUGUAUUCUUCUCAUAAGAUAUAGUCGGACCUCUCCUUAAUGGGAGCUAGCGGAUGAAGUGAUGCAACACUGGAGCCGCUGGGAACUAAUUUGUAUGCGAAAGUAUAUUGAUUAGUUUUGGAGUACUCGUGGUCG;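 note: selection with 25 µg/mL kanamycin versus none on LB agar overnight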
- CONDITIONS: 37 °C
VALUE TYPE: self-splicing fitness (ln)
Output: the number by itself.

> print(dat)
        record.sequence  reading
1  UCCGAGCAAUAUUACGGGAG    -2.79
2  UCUUAGCAAUAUUACGUUAU     -2.3
3  UUGGAGCAAUAUUACGGGGA    -2.72
4  GGGCAGCAAUAUUACGUACG  -0.0767

In: Looking for the measured self-splicing fitness (ln) of `AAAGAGCAAUAUUACGGUUC` , can you help?
Out: -2.82

In: Looking for the measured self-splicing fitness (ln) of `CUGCAGCAAUAUUACGCAAU` , can you help?
Out: -2.77

In: Looking for the measured self-splicing fitness (ln) of `CGCGAGCAAUAUUACGCGUC` , can you help?
Out: -2.68

In: Looking for the measured self-splicing fitness (ln) of `UGUGAGCAAUAUUACGAUUU` , can you help?
Out: -2.06

In: Looking for the measured self-splicing fitness (ln) of `AGAGAGCAAUAUUACGGCUC` , can you help?
Out: -1.37

In: Looking for the measured self-splicing fitness (ln) of `GUAGAGCAAUAUUACGAAAC` , can you help?
Out: -0.546

In: Looking for the measured self-splicing fitness (ln) of `UUUAAGCAAUAUUACGGCUA` , can you help?
Out: 0.291

In: Looking for the measured self-splicing fitness (ln) of `ACUUAGCAAUAUUACGUUGU` , can you help?
Out: -2.12

In: Looking for the measured self-splicing fitness (ln) of `AAGGAGCAAUAUUACGGAAA` , can you help?
Out: -0.83

In: Looking for the measured self-splicing fitness (ln) of `GAGGAGCAAUAUUACGUAAG` , can you help?
Out: -2.13

In: Looking for the measured self-splicing fitness (ln) of `GACAAGCAAUAUUACGGUUA` , can you help?
Out: -0.186

In: Looking for the measured self-splicing fitness (ln) of `UCAGAGCAAUAUUACGGCGU` , can you help?
Out: -2.05

* * *

Here the recorded self-splicing fitness (ln) is given for each entry.
- METHOD NOTES: self-splicing fitness, log relative to wild type (ln ratio); higher = more splicing; Tetrahymena group I intron in knt gene, E. coli kanamycin selection, DiMSum; sequences stand for … in CUCUCU…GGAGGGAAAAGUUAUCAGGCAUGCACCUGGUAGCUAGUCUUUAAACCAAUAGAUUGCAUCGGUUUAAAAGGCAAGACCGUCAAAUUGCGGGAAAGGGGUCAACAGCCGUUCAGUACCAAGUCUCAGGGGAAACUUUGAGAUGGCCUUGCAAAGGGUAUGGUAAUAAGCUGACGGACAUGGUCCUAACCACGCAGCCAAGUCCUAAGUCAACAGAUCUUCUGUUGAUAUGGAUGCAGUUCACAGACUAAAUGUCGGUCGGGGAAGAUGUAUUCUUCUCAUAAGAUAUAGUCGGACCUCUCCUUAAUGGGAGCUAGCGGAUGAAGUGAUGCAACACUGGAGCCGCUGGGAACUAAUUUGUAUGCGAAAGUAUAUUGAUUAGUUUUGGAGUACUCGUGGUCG
- CONDITIONS: 30 °C

> print(dat)
        record.sequence  reading
1  GUAGAGCAAUAUUACGAAAC      0.2

In: Looking for the measured self-splicing fitness (ln) of `CGGUAGCAAUAUUACGCGAG` , can you help?
Out: -3.58

In: Looking for the measured self-splicing fitness (ln) of `GACCAGCAAUAUUACGCGAC` , can you help?
Out: -2.3

In: Looking for the measured self-splicing fitness (ln) of `UCGGAGCAAUAUUACGGAUU` , can you help?
Out: -2.73

These data points were gathered from the supplement of paper PMC7877785.
